Exercise: state measured apparent KD of K4 kissing-loop reporter for each of the sequences provided.
Tested on: K4 kissing-loop RNA reporter;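 also: bound reporter read as fluorescence of individual clusters on recovered sequencing chips by microscopy, with normalized cluster intensities fitted with a binding model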
Assay: apparent KD of K4 kissing-loop reporter; higher = weaker reporter binding
Conditions: Eterna round: R107; input ligand: tryptophan 2.4 mM

Quickly give me recorded apparent KD of K4 kissing-loop reporter for UUCUACGUGCAAGGAUAUCCAUACGCUGCUAAGCGGGUAGCGAUAUAUGGAGUGAUGUUCCAUGUAGGAGAAGGUGCACUGUCCU [Rieser] 242 nM

Quickly give me recorded apparent KD of K4 kissing-loop reporter for UGUGGAGAAUAUGAUACCAGCAGUGAGAGAGAGGAAGUAUAGUGAUGUUAUAUGAGAGAAUGCCCUUGGCAGCAUAUGAAGAAGG [SSTheophylB.E] 115 nM

Quickly give me recorded apparent KD of K4 kissing-loop reporter for UAACUGCAGUGAUGUUGCAGAUGUCCUGACUAGGAUAUCAGGAAACUGAGAAGGAGUGCCUUCUAAACAUCACAGAAGGUGGACA [KL-SSFMN-A28] 458 nM

Quickly give me recorded apparent KD of K4 kissing-loop reporter for GAUUCUAGCGAAAGUGAUGUUUUCGAGGAUACCAGUGCCACUUGACACCCUUGGCAGCCUACCCGUCAUCACAAGUGGCGUUAAA [theeternabot_exclusion_KL_Theo_A_28] 118 nM

Quickly give me recorded apparent KD of K4 kissing-loop reporter for GGUGUUGUUUGUGCUGUUUUCCUCGUUCCUCGAGGACCGGUACGGCCGCCACUCGAGUGAUGUUUGGGUAGCGAUCCCUGUUAGU [Bdazzled - #8 Exc. Tryptophan A] 593 nM

Quickly give me recorded apparent KD of K4 kissing-loop reporter for GCCGUAGAUGGAAGGAGCGUGGUCUAGAAGCACAAGUGAUGUUUGUGGUAACCUUCUGACCCACAGGUAGGUCGCCAUCUACGGC 82.1 nM

Quickly give me recorded apparent KD of K4 kissing-loop reporter for GCAACAUUGGUAGGAUAUCAUUCUGAGUGAUGUUCAGGGUUCAGCUAACGAAAGUUAGUUGUACCAUGAGAAGGGCUAAUGUUGC [Omei KL FMN B SS A v5] 989 nM

Quickly give me recorded apparent KD of K4 kissing-loop reporter for AGUGAUGUGGGAAGGAGCGGUUAAUGAAUUCAGUGAUGUUGAAGUGAUGCUGAAAUGAUGUGCCAGGUAGGUCGCCUAGAUGUUA [KL-XARG B28] 203 nM

Quickly give me recorded apparent KD of K4 kissing-loop reporter for UGCGCUGCCUGAGGAUAUAGAAACGAGUGAUGUUCGUGGAUAAGAGCCAGUGAUGUUGGGUUAUUUCUAGAAGGCAGGCAAAGUA [Exclusion FMN B GF7] 104 nM

Quickly give me recorded apparent KD of K4 kissing-loop reporter for CCUAUCUCAUACGAUACCAGUGAUUAACCAGUGAUGUUGGAAUAACCAAGGAAUAUUUUUCACCCUUGGCAGCGUAUGGGAUAGG [Ex Theophylline B K4 26] 49.6 nM

Quickly give me recorded apparent KD of K4 kissing-loop reporter for GGAUAGGACAGAGGAUAUGGUAGCUAGGCAAGACAAAAGUCUUGUCUAGCAAUGAGGAGUGAUGUUCCAGAAGGCUGUCCUAUCG [FmnBX 4 - #SwitchBubble #StaticStem] 270 nM

Quickly give me recorded apparent KD of K4 kissing-loop reporter for CAUCUCAUGAAAUGAGAUGUCAUCAGUGAAGGAGCGCUAUUAGCAGCAGGUAGGUCGCACUGAAGCGGAGUGAUGUUCUGUAUGA [Arg A SS t3] 150 nM

###

System: MS2 coat protein
Experiment: apparent KD of MS2 coat protein; designed switch direction (-1 OFF switch, 1 ON switch): -1; higher = weaker reporter binding
Settings: input ligand: none
Exercise: state measured apparent KD of MS2 coat protein for each of the sequences provided.
Please reply with the bare figure in nM and do not write the unit itself.

Quickly give me recorded apparent KD of MS2 coat protein for CCAUACUGUAAGCUUCCCAACAUGAGGAUCACCCAUGUGGACCACGGCUUCGGUCAGCUAACCUGCUCGUCGUUGAU [Eternabot (L2) Solution 31] (Eterna round: R97, puzzle: Sensor, turn-off variant 1) 16.9

Quickly give me recorded apparent KD of MS2 coat protein for CUCUGUGCAAAGGAUAUGUGAACAGGUCUAAUAACAGAAGGUUGCACUUGAGGAUCACCCAAGUUAAAGGGACC [Ortebi] (Eterna round: R97, puzzle: Exclusion 6) 462

Quickly give me recorded apparent KD of MS2 coat protein for CAAGAAUCUAUAUAAAGGCACAUGAGGAUCACCCAUGUGGUCCGUAAAAUCAUGCGACAAGCCAUUUGCUCGUCGUG [Eternabot (L2) Solution 30] (Eterna round: R97, puzzle: Sensor, turn-off variant 1) 37.6

###

System: MS2 coat protein
Assay: apparent KD of MS2 coat protein; designed switch direction (-1 OFF switch, 1 ON switch): -1; higher = weaker reporter binding
Details: Eterna round: R95; input ligand: FMN 200 uM
Exercise: state measured apparent KD of MS2 coat protein for each of the sequences provided.
Please reply with the bare figure in µM and do not write the unit itself.

Quickly give me recorded apparent KD of MS2 coat protein for AAUAACAAGCAGAUCCUAAACAUGAGGAUCACCCAUGUGCUCGUCUUGUAAAGUACUAUCACGAAAGUGAUAGUACA [Sensor 3, v1 - 59] (puzzle: Sensor v3, turn-off variant 1) 0.0675

Quickly give me recorded apparent KD of MS2 coat protein for CUCAAACAUGAGGAUCACCCAUGUGAGGAUAUGAUGCGAUCGUCGAAAGACGAUAGCAUCAGAAGGUACAAAUG [Fiskers Ex 1 - 23] (puzzle: Exclusion 1) 0.0377

Quickly give me recorded apparent KD of MS2 coat protein for AAAAGGUCAGGAUAUCGACGCGGUUGGGAGGCAGGUCCGCGCGAGAAGGGACAUGAGGAUCACCCAUGUUAAAA [Excls4-IV] (puzzle: Exclusion 4) 0.0335

###

System: MS2 coat protein
Experiment: apparent KD of MS2 coat protein; designed switch direction (-1 OFF switch, 1 ON switch): -1; higher = weaker reporter binding
Conditions: input ligand: microRNA oligo, concentration not stated
Rule: apparent KD of MS2 coat protein under 50 nM gives condition not met, otherwise condition met.

Reported apparent KD of MS2 coat protein at or above 50 nM? AUCUACCGAGCAGGAUAUCCAGGCACAUGAGGAUCACCCAUGUCAGGGAGAGAAGUUGUUUGCGUGGAGAAGGGCUAUAAAUUA [Isdiatte] (Eterna round: R96, puzzle: Exclusion NG 2) condition met

Reported apparent KD of MS2 coat protein at or above 50 nM? UCGCUCCGUGUAGGAUAUCGCCGUUCUAUUCGGCGAGAAGGACAUGAGGAUCACCCAUGUAUGUUAUUAUCACGCGUGGCGCAC [Design 57] (Eterna round: R96, puzzle: Exclusion NG 1) condition not met

Reported apparent KD of MS2 coat protein at or above 50 nM? CAAGCUUUGCGAGGAUAUGAUGGCCUAUAUGCCUCAGAAGGCGCAGAAACUUGAGGAUCACCCAAGUGAUGCAAAUACGAAAAU [Mutated MS2 EX1.9] (Eterna round: R96, puzzle: Exclusion NG 1) condition not met

Reported apparent KD of MS2 coat protein at or above 50 nM? UUGAUUCAUUCCUCCAUAAACAUGAGGAUCACCCAUGUAAGUGAGGAUAUAGUUGGAGUAGUAUACUAGAAGGCACUUAGAUAU [JR_ExcNG3_Sub047] (Eterna round: R96, puzzle: Exclusion NG 3) condition not met

Reported apparent KD of MS2 coat protein at or above 50 nM? AAUAAUCAUGUAGGAUAUGCGUGGCGAAGCUAUGCAGAAGGACAUGAGGAUCACCCAUGUUCUAGCGUCUGCGUACAGAUGCUA [Mat - Exclusion NG 1 - Mod of JL - D79] (Eterna round: R96, puzzle: Exclusion NG 1) condition not met

Reported apparent KD of MS2 coat protein at or above 50 nM? GUAUAACAUGUAGGAUAUGCAUGGCAAAGCUAUGCAGAAGGACAUGAGGAUCACCCAUGUAAUAGCGUCUGCGUACAGAUGCAA [Mat - Exclusion NG 1 - Mod of JL - D92] (Eterna round: R96, puzzle: Exclusion NG 1) condition not met

Reported apparent KD of MS2 coat protein at or above 50 nM? UAUAUAUAGUAAGGAUAUGUAAUUAUUUUAUAGACAGAAGGUACUGACAUGAGGAUCACCCAUGUUUUAGUGUGGGCAUGUAGA [JMF's solution 50] (Eterna round: R96, puzzle: Exclusion NG 1) condition met

Reported apparent KD of MS2 coat protein at or above 50 nM? AUGGCAAAGUUAGGAUAUGCAGUCUCCAAGACUGCAGAAGGAACGGUCCUCCUCCCUGAAACAUGAGGAUCACCCAUGUAAAGC [Eternabot solution 45] (Eterna round: R96, puzzle: Exclusion NG 1) condition met
